- testDetails: Hemolytic activity in human erythrocytes assessed as release of hemoglobin after 60 mins
- Assay type: ADME, cell-based, Erythrocyte
- conditionInfo: human, erythrocyte, 1 h
measurementLabel: Activity

CN1C(=S)CC[C@H]1c1cccnc1.C[C@H](CCC(=O)O)[C@H]1CC[C@H]2[C@@H]3CC[C@@H]4C[C@H](O)CC[C@]4(C)[C@H]3C[C@H](O)[C@]12C
Dose-dependent effect
CN1CCC[C@H]1c1cccnc1.C[C@H](CCC(=O)O)[C@H]1CC[C@H]2[C@@H]3CC[C@@H]4C[C@H](O)CC[C@]4(C)[C@H]3CC[C@]12C
Dose-dependent effect
CN1C(=[Se])CC[C@H]1c1cccnc1.C[C@H](CCC(=O)O)[C@H]1CC[C@H]2[C@@H]3CC[C@@H]4C[C@H](O)CC[C@]4(C)[C@H]3C[C@H](O)[C@]12C
Dose-dependent effect
CN1C(=S)CC[C@H]1c1cccnc1.C[C@H](CCC(=O)O)[C@H]1CC[C@H]2[C@@H]3CC[C@@H]4C[C@H](O)CC[C@]4(C)[C@H]3CC[C@]12C
Dose-dependent effect

Incoming: // returns reported Activity for input CN1C(=[Se])CC[C@H]1c1cccnc1.C[C@H](CCC(=O)O)[C@H]1CC[C@H]2[C@@H]3CC[C@@H]4C[C@H](O)CC[C@]4(C)[C@H]3CC[C@]12C
Outgoing: Dose-dependent effect

Incoming: Give its Activity value. Item: CN1CCC[C@H]1c1cccnc1.C[C@H](CCC(=O)O)[C@H]1CC[C@H]2[C@@H]3CC[C@@H]4C[C@H](O)CC[C@]4(C)[C@H]3C[C@H](O)[C@]12C
Outgoing: Dose-dependent effect

---

- testDetails: Hemolytic activity in human erythrocytes assessed as release of hemoglobin at 0.63 mg/mL after 60 mins relative to control
- Type: ADME, cell-based, Erythrocyte
- conditionInfo: read-out: Activity
measurementLabel: hemolysis at 1 h, 0.63 mg/mL (%)
Provide only the numeric value, understood in %.

Incoming: Item under review: CN1CCC[C@H]1c1cccnc1.C[C@H](CCC(=O)O)[C@H]1CC[C@H]2[C@@H]3CC[C@@H]4C[C@H](O)CC[C@]4(C)[C@H]3C[C@H](O)[C@]12C . Reported hemolysis at 1 h, 0.63 mg/mL?
Outgoing: 5

---

- testDetails: Hemolytic activity in human erythrocytes assessed as release of hemoglobin at 0.007 mg/mL after 60 mins relative to control
measurementLabel: hemolysis at 1 h, 0.007 mg/mL (%)
The figure you give is taken to be in %; do not add the unit.

Incoming: Endpoint output: hemolysis at 1 h, 0.007 mg/mL of CN1CCC[C@H]1c1cccnc1.C[C@H](CCC(=O)O)[C@H]1CC[C@H]2[C@@H]3CC[C@@H]4C[C@H](O)CC[C@]4(C)[C@H]3CC[C@]12C . Value?
Outgoing: 5

---

hemolysis at 1 h, 1e-05 mg/mL: recorded values
- testDetails: Hemolytic activity in human erythrocytes assessed as release of hemoglobin at 0.00001 mg/mL after 60 mins relative to control
- Assay type: ADME, cell-based, Erythrocyte
- conditionInfo: read-out: Activity
Form entry: value (%) — number only.

CN1CCC[C@H]1c1cccnc1.C[C@H](CCC(=O)O)[C@H]1CC[C@H]2[C@@H]3CC[C@@H]4C[C@H](O)CC[C@]4(C)[C@H]3CC[C@]12C
16.7
CN1C(=S)CC[C@H]1c1cccnc1.C[C@H](CCC(=O)O)[C@H]1CC[C@H]2[C@@H]3CC[C@@H]4C[C@H](O)CC[C@]4(C)[C@H]3CC[C@]12C
5

Turning now to a further compound:
Incoming: Any idea what its hemolysis at 1 h, 1e-05 mg/mL is? The compound is CN1CCC[C@H]1c1cccnc1.C[C@H](CCC(=O)O)[C@H]1CC[C@H]2[C@@H]3CC[C@@H]4C[C@H](O)CC[C@]4(C)[C@H]3C[C@H](O)[C@]12C
Outgoing: 12.4
